Value source: PubChem BioAssay AID1963423

System: 439559-082-T-J2-PDC complex spheroid growth;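 note: spheroids exposed to agents for 7 days starting day 3 after seeding; percent of DMSO vehicle control viability with 100% = vehicle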
test.protocol: Anticancer human tumor 439559-082-T-J2-PDC patient-derived colon adenocarcinoma cell line growth inhibition [Asc]
condition.label: second compound 0.03 µM; first compound 0.0316 µM; active compounds read low

molecule: C#Cc1c(F)ccc2cc(O)cc(-c3ncc4c(N5CC6CCC(C5)N6)nc(OCC56CCCN5CC(F)C6)nc4c3F)c12 (centres undefined) + CCN1C(C(=O)NC23CCC(C(=O)O)(CC2)CC3)C(c2cccc(Cl)c2F)C2(C(=O)Nc3cc(Cl)ccc32)C12CCCCC2
viability, T/C: 88%
--
molecule: O=C(c1ccc(F)c(F)c1Nc1ccc(I)cc1F)N1CC(O)([C@@H]2CCCCN2)C1 + CCN1C(C(=O)NC23CCC(C(=O)O)(CC2)CC3)C(c2cccc(Cl)c2F)C2(C(=O)Nc3cc(Cl)ccc32)C12CCCCC2
viability, T/C: 83.8%
--
molecule: O=C(c1cc(Cc2n[nH]c(=O)c3ccccc23)ccc1F)N1CCN(C(=O)C2CC2)CC1 + CCN1C(C(=O)NC23CCC(C(=O)O)(CC2)CC3)C(c2cccc(Cl)c2F)C2(C(=O)Nc3cc(Cl)ccc32)C12CCCCC2
viability, T/C: 106%
--
molecule: Cn1ncnc1[C@H]1c2n[nH]c(=O)c3cc(F)cc(c23)N[C@@H]1c1ccc(F)cc1 + CCN1C(C(=O)NC23CCC(C(=O)O)(CC2)CC3)C(c2cccc(Cl)c2F)C2(C(=O)Nc3cc(Cl)ccc32)C12CCCCC2
viability, T/C: 101%
